test: solvent given as SMILES; conditions: in C1CCOC1
Result type: fluorescence lifetime (ns)
Answers are plain numbers, in ns.

As a guide, the following entries are already answered.
// fluorescence lifetime value for `CC(C)(C)c1ccc(C2=C(c3ccc(N(c4ccccc4)c4ccccc4)cc3)S(=O)(=O)c3c2sc(-c2ccc(N(c4ccccc4)c4ccccc4)cc2)c3-c2ccc(C(C)(C)C)cc2)cc1` : 3.03

// fluorescence lifetime value for COC(=O)C(Cc1ccc2oc(-c3ccc(N(C)C)cc3)nc2c1)NC(=O)OC(C)(C)C (centres undefined) : 1.21

Could you report fluorescence lifetime for every entry in the following list?
1. FC(F)(F)C(F)(F)C(F)(F)C1=NC2=C(Oc3ccccc3)C=C3c4cc(Oc5ccccc5)c5nc(C(F)(F)C(F)(F)C(F)(F)F)nc6c(Oc7ccccc7)cc(c4c56)=C4C=C(Oc5ccccc5)C(=N1)C2C34 (centres undefined)
2. F[B-]1(F)n2c(/C=C/c3ccc(C(=C(c4ccccc4)c4ccccc4)c4ccccc4)cc3)ccc2C(c2ccc(C(=C(c3ccccc3)c3ccccc3)c3ccccc3)cc2)=C2C=CC(/C=C/c3ccc(C(=C(c4ccccc4)c4ccccc4)c4ccccc4)cc3)=[N+]21

[2.8, 3.89]
